Test system: Hepatotoxicity
If the reported HepSE_Combined Scores equals or exceeds 4, assign fulfilled. If not, assign not fulfilled.

Here are 3 molecules together with their reported answers.
| Test smiles | Discrete label |
| --- | --- |
| CC[C@@H](CO)NCCN[C@@H](CC)CO | not fulfilled |
| CC(=O)O[C@@]12CO[C@@H]1C[C@H](O)[C@@]1(C)C(=O)[C@H](O)C3=C(C)[C@@H](OC(=O)[C@H](O)[C@@H](NC(=O)OC(C)(C)C)c4ccccc4)C[C@@](O)([C@@H](OC(=O)c4ccccc4)[C@H]21)C3(C)C.O.O.O | fulfilled |
| CC(=O)[C@]1(O)Cc2c(O)c3c(c(O)c2[C@@H](O[C@H]2C[C@H](N)[C@H](O)[C@H](C)O2)C1)C(=O)c1ccccc1C3=O | not fulfilled |

Next, consider the following molecule.
stdin: Item `CO[C@H]1C[C@@H]2CC[C@@H](C)[C@@](O)(O2)C(=O)C(=O)N2CCCC[C@H]2C(=O)O[C@H]([C@H](C)C[C@@H]2CC[C@@H](O)[C@H](OC)C2)CC(=O)[C@H](C)/C=C(\C)[C@@H](O)[C@@H](OC)C(=O)[C@H](C)C[C@H](C)/C=C/C=C/C=C/1C` with HepSE_Combined Scores of 4 or above?
stdout: not fulfilled

###

Test system: Hepatotoxicity
Measured HepSE_hepatic failure values are reported for all entries that follow.
Could you keep your reply to the number by itself?

Observe how each entry below is paired with its result.
| Molecule | Endpoint result |
| --- | --- |
| O=C(O)CCC(=O)O.O=C(O[C@H]1CN2CCC1CC2)N1CCc2ccccc2[C@@H]1c1ccccc1 [SOLIFENACIN SUCCINATE] | 0 |
| CN(C)CCCC1(c2ccc(F)cc2)OCc2cc(C#N)ccc21 (centres undefined) [CITALOPRAM] | 1 |
| NCCCC(=O)O [GAMMA-AMINOBUTYRIC ACID] | 0 |
| Cc1ncc2n1-c1ccc(Cl)cc1C(c1ccccc1F)=NC2 [MIDAZOLAM] | 0 |
| FC(F)OC(F)C(F)(F)F (centres undefined) | 1 |

stdin: Tell me measured HepSE_hepatic failure for COc1cc([C@@H]2c3cc4c(cc3[C@@H](O[C@@H]3O[C@@H]5CO[C@@H](c6cccs6)O[C@H]5[C@H](O)[C@H]3O)[C@H]3COC(=O)[C@H]23)OCO4)cc(OC)c1O [TENIPOSIDE] please.
stdout: 0

stdin: Tell me measured HepSE_hepatic failure for C[C@H](CS)C(=O)N1CCC[C@H]1C(=O)O [CAPTOPRIL] please.
stdout: 0

stdin: Tell me measured HepSE_hepatic failure for O=C(NCC1CCCCN1)c1cc(OCC(F)(F)F)ccc1OCC(F)(F)F (centres undefined) [FLECAINIDE] please.
stdout: 1

stdin: Tell me measured HepSE_hepatic failure for CCOC(=O)C1=C(COCCN)NC(C)=C(C(=O)OC)C1c1ccccc1Cl (centres undefined) [AMLODIPINE] please.
stdout: 0

###

Hepatotoxicity measurements of HepSE_bilirubinemia, listed per entry.
Could you keep your reply to the number by itself?

Observe how each entry below is paired with its result.
| Molecule | HepSE_bilirubinemia |
| --- | --- |
| CO[C@H]1/C=C/O[C@@]2(C)Oc3c(C)c(O)c4c(O)c(c5c(nc6cc(C)ccn65)c4c3C2=O)NC(=O)/C(C)=C\C=C\[C@H](C)[C@H](O)[C@@H](C)[C@@H](O)[C@@H](C)[C@H](OC(C)=O)[C@@H]1C | 0 |
| COc1ccc(C(CN(C)C)C2(O)CCCCC2)cc1 (centres undefined) | 1 |

stdin: Report HepSE_bilirubinemia on Hepatotoxicity for this entry: `c1ccc2[nH]c(-c3cscn3)nc2c1`
stdout: 0

stdin: Report HepSE_bilirubinemia on Hepatotoxicity for this entry: CN1C(=O)CC(C)(c2ccccc2)C1=O (centres undefined) [METHSUXIMIDE]
stdout: 0
